assay: Antitumor activity and toxicity in mice grafted subcutaneously with HCT116 human tumor fragments
Format: in vivo
conditions.used: mouse, in vivo, iv; irinotecan alone, i.v. twice a day on days 12, 15, 18; read-out: maximum tolerated dose, total injected dose
property: MTD (mg/kg)
Numbers only, in mg/kg.

Prompt line: Give reported MTD value for CCc1c2c(nc3ccc(OC(=O)N4CCC(N5CCCCC5)CC4)cc13)-c1cc3c(c(=O)n1C2)COC(=O)[C@]3(O)CC [CPT-11, irinotecan]
Response line: 75

FYI, the data here is from patent US20140127202A1.
